tested on: E. coli MG1655; experiment: High-throughput screening of FDA-approved drug library for antibiotic adjuvants (growth inhibition, OD600); type: cell-based, Escherichia coli; conditions: library drug alone, LB medium, 96-well, 8 h static culture at 37°C, relative to PMBN (positive) and DMSO (negative) controls, %, table head prints no unit
RECORDED METRIC: Growth inhibition, Compound (%)
API: value field is a number in %; no unit string.

response.value for CO[C@H]1/C=C/O[C@@]2(C)Oc3c(C)c(O)c4c(O)c(c5c(nc6cc(C)ccn65)c4c3C2=O)NC(=O)/C(C)=C\C=C\[C@H](C)[C@H](O)[C@@H](C)[C@@H](O)[C@@H](C)[C@H](OC(C)=O)[C@@H]1C [Rifaximin] (field: Growth inhibition, Compound) = 108

// field: Growth inhibition, Compound; key: CC1(C)S[C@@H]2[C@H](NC(=O)[C@H](N)c3ccc(O)cc3)C(=O)N2[C@H]1C(=O)[O-].[Na+] [Amoxicillin Sodium] ; value = 98

Measured Growth inhibition, Compound of Cc1nnc(SCC2=C(C(=O)O)N3C(=O)[C@@H](NC(=O)Cn4cc(Cl)c(=O)c(Cl)c4)[C@H]3SC2)s1 [Cefazedone] : 111

Looking up Cc1nnc(SCC2=C(C(=O)O)N3C(=O)[C@@H](NC(=O)Cn4cnnn4)[C@H]3SC2)s1 [Cefazolin] , I found its Growth inhibition, Compound recorded as 102

Growth inhibition, Compound reported for this molecule O=C(O)c1cn(-c2ccc(F)cc2)c2cc(N3CCNCC3)c(F)cc2c1=O [Sarafloxacin] : 109

Looking up CCCCCCCCCCCCCCCC[N+](C)(C)C [Cetrimonium bromide] , I see its Growth inhibition, Compound listed as 87

Just so you know, measured Growth inhibition, Compound for O=c1[nH]cnc2c1ncn2[C@H]1CC[C@@H](CO)O1 [Didanosine] came out at 41
